Give measured pest or weed control at 100 ppm for each item. Keep answers brief.
# System: Mycosphaerella graminicola; Anamorph: Septoria tritici
# Assay procedure: Leaf blotch of wheat (SEPTTR) disease control on wheat seedlings
# Type: in vivo
# Condition info: Zymoseptoria tritici, 24 h; 1 Day Protectant, 100 ppm (high volume), wheat; read-out: SEPTTR 1DP disease control rating

Challenge: Dear colleague, I am looking for the recorded pest or weed control at 100 ppm of the following molecule: CCCC[C@H]1[C@H](C)OC(=O)[C@@H](NC(=O)c2nccc(OC)c2O)CCC[C@@H]1OCC1CC1
Response given: > 70%

Challenge: Fill blank: measured pest or weed control at 100 ppm of the molecule CCCO[C@H]1CCC[C@H](NC(=O)c2nccc(OC)c2O)C(=O)O[C@@H](C)[C@@H]1Cc1ccc(F)cc1 is ____.
Response given: > 70%

Challenge: Reported pest or weed control at 100 ppm, molecule COc1ccnc(C(=O)N[C@H]2CCC[C@H](OCC3CC3)[C@@H](Cc3ccccc3)[C@H](C)OC2=O)c1OC(C)=O : ____
Response given: > 70%

Challenge: Please give the measured pest or weed control at 100 ppm for this molecule: CCCC[C@H]1[C@H](C)OC(=O)[C@@H](NC(=O)c2nccc(OC)c2O)CCC[C@@H]1OCCCC(F)(F)F
Response given: > 70%

Challenge: Entry CCCO[C@H]1CCC[C@H](NC(=O)c2nccc(OC)c2O)C(=O)O[C@@H](C)[C@@H]1Cc1ccccc1 : reported pest or weed control at 100 ppm = ?
Response given: > 70%

Challenge: Using the record for CCCC[C@H]1[C@H](C)OC(=O)[C@@H](NC(=O)c2nccc(OC)c2O)CCC[C@@H]1Oc1ccccc1 , report its pest or weed control at 100 ppm.
Response given: > 70%

Challenge: Give its pest or weed control at 100 ppm value. Item: COc1ccnc(C(=O)N[C@H]2CCC[C@H](OCC3CC3)[C@@H](Cc3ccccc3)[C@H](C)OC2=O)c1O
Response given: > 70%

Challenge: Data request, read-out pest or weed control at 100 ppm, for COc1ccnc(C(=O)N[C@H]2CCC[C@H](OCC3CC3)[C@@H](Cc3ccc(F)cc3)[C@H](C)OC2=O)c1O
Response given: > 70%

Challenge: Suppose we examine the molecule COc1ccnc(C(=O)N[C@H]2CCC[C@H](Oc3ccccc3)[C@@H](CCC(C)C)[C@H](C)OC2=O)c1O ; what pest or weed control at 100 ppm value has been reported?
Response given: > 70%

Challenge: Can you look up the measured pest or weed control at 100 ppm of COc1ccnc(C(=O)N[C@H]2CCC[C@H](OC(=O)C3CC3)[C@@H](Cc3ccc(F)cc3)[C@H](C)OC2=O)c1O for me?
Response given: > 70%

Challenge: Entry COc1ccnc(C(=O)N[C@H]2CCC[C@H](OCc3ccccc3)[C@@H](CCC(C)C)[C@H](C)OC2=O)c1O : reported pest or weed control at 100 ppm = ?
Response given: < 70%

Challenge: pest or weed control at 100 ppm lookup needed for COc1ccnc(C(=O)N[C@H]2CCC[C@H](Oc3ccc(C)cc3)[C@@H](Cc3ccc(F)cc3)[C@H](C)OC2=O)c1O , thanks.
Response given: > 70%

Challenge: Requested field: pest or weed control at 100 ppm. Item: COc1ccnc(C(=O)N[C@H]2CCC[C@H](Oc3ccc(C)cc3)[C@@H](Cc3ccccc3)[C@H](C)OC2=O)c1O
Response given: > 70%

Challenge: GET /values?readout=pest or weed control at 100 ppm&item= COc1ccnc(C(=O)N[C@H]2CCC[C@H](OCC3CC3)[C@@H](Cc3ccccc3)[C@H](C)OC2=O)c1OCOC(C)=O
Response given: > 70%

Challenge: Given the entry CCCC[C@H]1[C@H](C)OC(=O)[C@@H](NC(=O)c2nccc(OC)c2O)CCC[C@@H]1OC(=O)C(C)C , report its measured pest or weed control at 100 ppm.
Response given: > 70%

Challenge: Name the recorded pest or weed control at 100 ppm for CCCC[C@H]1[C@H](C)OC(=O)[C@@H](NC(=O)c2nccc(OC)c2O)CCC[C@@H]1OCc1ccccc1 .
Response given: > 70%

Challenge: Which pest or weed control at 100 ppm is listed for CCCO[C@H]1CCC[C@H](NC(=O)c2nccc(OC)c2OC(C)=O)C(=O)O[C@@H](C)[C@@H]1Cc1ccccc1 ?
Response given: > 70%
